Listing of entries alongside the reported koff.
# target.desc: VEGF (R&D systems, Minneapolis, Minn.) (UniProt P15692-4 27-191, limits assumed)
# Sequence (P15692 other isoform, or with tags, fused parts or gaps limits assumed): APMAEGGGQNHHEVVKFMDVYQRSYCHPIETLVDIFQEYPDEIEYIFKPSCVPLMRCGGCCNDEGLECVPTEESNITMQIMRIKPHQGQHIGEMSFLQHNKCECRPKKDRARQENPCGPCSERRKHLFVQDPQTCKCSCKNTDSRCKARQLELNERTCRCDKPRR
# experimental.protocol: BIAcore SPR
// note: answer is a bare numeric in s⁻¹

>  <binder>
85 (antibody, human IgG1, V domains shown) VH: EVQLVESGGGLVQPGGSLRLSCAASGYTFTFYGMNWVRQAPGKGLEWVGWINTYTGEPTYAADFKRRFTFSLDTSKSTAYLQMNSLRAEDTAVYYCAKYPEYEGSSHWYFDVWGQGTLVTVSS VL: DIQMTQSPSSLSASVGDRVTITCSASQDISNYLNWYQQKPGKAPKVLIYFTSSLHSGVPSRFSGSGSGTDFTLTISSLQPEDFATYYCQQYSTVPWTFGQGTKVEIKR

>  <numeric.result>
0.000175

$$$$

Please turn your attention to the following entry.
// query Query (binder): bevacizumab variant corresponding to SEQ ID NO:82 (antibody, V domains shown) VH: EVQLVESGGGLVQPGGSLRLSCAASGYTFTFYGMNWVRQAPGKGLEWVGWINTYTGEPTYAADFKRRFTFSLDTSKSTAYLQMNSLRAEDTAVYYCAKYPDYDGGSHWYFDVWGQGTLVTVSS VL: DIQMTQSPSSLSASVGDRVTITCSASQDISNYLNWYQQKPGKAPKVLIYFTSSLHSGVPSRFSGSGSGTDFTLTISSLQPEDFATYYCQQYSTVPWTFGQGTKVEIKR ; field requested: koff
// result 0.000172
